# method description: Glass transition temperature (Tg) by differential thermal analyzer DSC-60
# Type: physicochemical
# assay context: second heating to 200° C. at 10° C./min; deemed 200° C. or more when no inflection point until 200° C.
reported property: Glass Transition Temperature (°C)
# value in °C; strip the unit string

# compound, unit of measure, Glass Transition Temperature
measured = [
    ("CC(C)(c1cc(CO)c(O)c(CO)c1)c1cc(CO)c(O)c(CO)c1 [CA-01, reference compound]", "°C", 27),
]

Shifting focus to the compound that follows.
Answer with the recorded Glass Transition Temperature for the compound listed here: CC(C)(C1CCC(c2cc(CO)c(O)c(CO)c2)(c2cc(CO)c(O)c(CO)c2)CC1)C1CCC(c2cc(CO)c(O)c(CO)c2)(c2cc(CO)c(O)c(CO)c2)CC1 [Compound A-01]
63
